details: buffer; pH 7.4; 200.0 µM
ENDPOINT NAME: solubility kinetic

A selection of reference data follows.
- COMPOUND: "CC(=O)NCCc1nc2ccccc2n1Cc1cccc(C)c1"
  solubility kinetic: "> 46.1 µg/mL"
- COMPOUND: "O=C(Nc1cccc(F)c1)Nc1cccc(Cl)c1"
  solubility kinetic: "2 µg/mL"
- COMPOUND: "CN(C(=O)COC(=O)c1cn(C)c2ccccc12)C1CCCCC1"
  solubility kinetic: "> 49.3 µg/mL"

Lookup: Give solubility kinetic for the following compound: NC(=O)CN1C(=O)C(=O)N(Cc2ccc(F)cc2)C1=O
Found: > 41.9 µg/mL

Lookup: Give solubility kinetic for the following compound: COCCNC(=O)c1cc(C(=O)CC(C)C)c[nH]1
Found: > 37.8 µg/mL

Lookup: Give solubility kinetic for the following compound: c1cc2c3c(cccc3c1)NC(c1ccc3c(c1)OCO3)N2
Found: 9.5 µg/mL

Lookup: Give solubility kinetic for the following compound: COc1ccc(S(=O)(=O)NC(C)C(=O)N2CCCC2)cc1Cl (centres undefined)
Found: 47 µg/mL

Lookup: Give solubility kinetic for the following compound: CCn1c(SCc2nc3ccccc3c(=O)[nH]2)nc2ccccc21
Found: 1.1 µg/mL

---

conditions: buffer; pH 7.4; 200.0 µM
ENDPOINT NAME: solubility kinetic (µg/mL)
Your answer is read as µg/mL, so omit the unit and give the number.

- COMPOUND: "Fc1ccc2nc(C(F)(F)F)cc(N3CCOCC3)c2c1"
  ENDPOINT NAME: "solubility kinetic"
  RECORDED NUMBER: 11.3
- COMPOUND: "CCCNC(=O)COC(=O)c1c2c(nc3ccccc13)CCC2"
  ENDPOINT NAME: "solubility kinetic"
  RECORDED NUMBER: 45.5
- COMPOUND: "O=C(Nc1nccs1)c1cccc2ccccc12"
  ENDPOINT NAME: "solubility kinetic"
  RECORDED NUMBER: 1.9
- COMPOUND: "O=c1[nH]c2ccccc2nc1-c1c[nH]c2ccccc12"
  ENDPOINT NAME: "solubility kinetic"
  RECORDED NUMBER: 0.2
- COMPOUND: "CCOc1ccc(NC(=O)CN(C)C(=O)c2ccc(C)o2)cc1OCC"
  ENDPOINT NAME: "solubility kinetic"
  RECORDED NUMBER: 52.5
- COMPOUND: "O=C(/C=C/c1ccccc1Cl)OCC(=O)c1ccc[nH]1"
  ENDPOINT NAME: "solubility kinetic"
  RECORDED NUMBER: 6.3
- COMPOUND: "COc1ccc(C(C)(C)C)cc1NC(=O)COC(=O)C(C)C"
  ENDPOINT NAME: "solubility kinetic"
  RECORDED NUMBER: 33.1
- COMPOUND: "CCN(CC)c1cccc(OC(=O)c2cccnc2Cl)c1"
  ENDPOINT NAME: "solubility kinetic"
  RECORDED NUMBER: 6.8

Lookup: Give solubility kinetic for the following compound: CCc1ccc(CNC(=O)CCc2cn(C)c3ccccc23)cc1
Found: 1.2

Lookup: Give solubility kinetic for the following compound: O=C(Nc1ccccc1C(=O)NCCc1ccc(O)cc1)c1ccco1
Found: 24.2

Lookup: Give solubility kinetic for the following compound: CCc1cccc(C)c1NC(=S)N1CCCCC1c1cccnc1 (stereo not given)
Found: 46.3

Lookup: Give solubility kinetic for the following compound: O=C1CN(S(=O)(=O)c2cc(Cl)ccc2Cl)c2ccccc2N1
Found: 37.8

Lookup: Give solubility kinetic for the following compound: CCCCC(=O)Nc1ccccc1C(C)C
Found: 23.3

Lookup: Give solubility kinetic for the following compound: Cc1ccc(/C=C/C(=O)Nc2cc(S(N)(=O)=O)ccc2O)cc1
Found: 42.2

Lookup: Give solubility kinetic for the following compound: COc1ccc(N2CC(NC(=O)N(C)CCC#N)CC2=O)cc1 (stereo not given)
Found: 46.7

Lookup: Give solubility kinetic for the following compound: Cc1cc(=O)[nH]c(SCC(=O)Nc2ccc(N3CCCCC3)cc2)n1
Found: 28.5

---

conditions: buffer; pH 7.4; 200.0 µM
ENDPOINT NAME: solubility kinetic

A selection of reference data follows.
- MOLECULE: "Cc1ccc(C(=O)NCCCNC(=O)COc2ccccc2Cl)cn1"
  RESULT: "> 54.3 µg/mL"
- MOLECULE: "Cc1ccccc1NS(=O)(=O)c1ccc2oc(=O)ccc2c1"
  RESULT: "> 47.3 µg/mL"
- MOLECULE: "Cc1cccc(C)c1NC(=O)COC(=O)c1cccnc1"
  RESULT: "> 42.6 µg/mL"

Lookup: Give solubility kinetic for the following molecule: O=C1C2C3C=CC(C2C(=O)N1CCO)C1C(=O)N(CCO)C(=O)C31 (stereo unspecified)
Found: > 50.1 µg/mL

Lookup: Give solubility kinetic for the following molecule: CC(Sc1ncnc2sccc12)C(=O)Nc1ccc(S(N)(=O)=O)cc1 (stereo unspecified)
Found: 8.7 µg/mL

Lookup: Give solubility kinetic for the following molecule: O=C(NCCO)/C(=C\c1ccco1)NC(=O)c1ccco1
Found: 35 µg/mL

---

settings: buffer; pH 7.4; 200.0 µM
Measured log10 of solubility kinetic accompanies every entry in the list below.
Please keep in mind that the values are log10 of solubility kinetic expressed in µg/mL.

A selection of reference data follows.
- COMPOUND: "Cc1ccc(S(=O)(=O)n2c(C)nc3cc(C)ccc32)cc1"
  log10 of solubility kinetic: 1.51
- COMPOUND: "CC(OC(=O)Cn1cc(C(F)(F)F)ccc1=O)C(=O)N(C)c1ccccc1 (stereo not given)"
  log10 of solubility kinetic: 1.76
- COMPOUND: "CCc1sc(C(=O)Nc2nc(C)cs2)cc1C"
  log10 of solubility kinetic: 0.86

Lookup: Give log10 of solubility kinetic for the following compound: CCCC(=O)Nc1ccc(C(=O)COC(=O)C2CC2C)cc1 (stereo not given)
Found: 1.15

Lookup: Give log10 of solubility kinetic for the following compound: Cc1ccc(-c2csc(NC(=O)c3c(C)noc3C)n2)cc1C
Found: 0.23

Lookup: Give log10 of solubility kinetic for the following compound: COc1ccc(Cl)cc1NC(=S)NCCc1ccc(F)cc1
Found: 1.14

Lookup: Give log10 of solubility kinetic for the following compound: Brc1ccc(Nc2nc(-c3cccnc3)cs2)cc1
Found: -0.52

Lookup: Give log10 of solubility kinetic for the following compound: CC(C)C(=O)Nc1ccc(N2CCOCC2)c(S(=O)(=O)Nc2ccccc2Cl)c1
Found: 0.45

Lookup: Give log10 of solubility kinetic for the following compound: Cl.N=C(N)N1CCc2ccccc21
Found: 1.45

Lookup: Give log10 of solubility kinetic for the following compound: O=C(COc1ccccc1Br)N1CCNC1=O
Found: 1.63

Lookup: Give log10 of solubility kinetic for the following compound: COCC(=O)Nc1ccc2c(c1)OCC(=O)N2Cc1ccccc1F
Found: 1.67

Lookup: Give log10 of solubility kinetic for the following compound: CNC(=O)c1csc(-c2cccs2)n1
Found: 1.52

Lookup: Give log10 of solubility kinetic for the following compound: O=C(c1ccc2c(c1)OCCCO2)N1CCCCC1
Found: 1.46

Lookup: Give log10 of solubility kinetic for the following compound: Fc1cccc(NC(=S)N2CCN(c3ccccn3)CC2)c1
Found: 0.75

---

details: buffer; pH 7.4; 200.0 µM
Measured solubility kinetic accompanies every entry in the list below.
Your answer is read as µg/mL, so omit the unit and give the number.

A selection of reference data follows.
- SMILES NOTATION: "CC(=O)N/C(=N/c1nc(C)cc(C)n1)Nc1ccc(C)cc1Cl"
  solubility kinetic, µg/mL: 0.2
- SMILES NOTATION: "CCOC(=O)c1nc(NCc2ccccc2)sc1C"
  solubility kinetic, µg/mL: 9.5
- SMILES NOTATION: "Cc1c(C)c(C)c(S(=O)(=O)N2CCSCC2)c(C)c1C"
  solubility kinetic, µg/mL: 1.5

# ---- query compound ----
Lookup: Give solubility kinetic for the following compound: O=C(O)Cc1sc(NCc2ccco2)nc1-c1ccccc1
Found: 46.8

---

Measured solubility kinetic accompanies every entry in the list below.
conditions: buffer; pH 7.4; 200.0 µM
Your answer is read as µg/mL, so omit the unit and give the number.

- COMPOUND: "COc1ccc(/C=C/C(=O)N(C)c2ccccc2C(=O)O)cc1"
  RECORDED NUMBER: 45.2
- COMPOUND: "C=C(C)Cn1cnc2c(oc3nc4c(cc32)CCCC4)c1=O"
  RECORDED NUMBER: 2.5
- COMPOUND: "O=C(NCCCn1ccnc1)c1cc(C(=O)C2CCCCC2)c[nH]1"
  RECORDED NUMBER: 49

Lookup: Give solubility kinetic for the following compound: Cc1cc(SCC(=O)Nc2ccc3[nH]c(=O)[nH]c3c2)nc2ccccc12
Found: 2.9

Lookup: Give solubility kinetic for the following compound: O=C(COC(=O)/C=C/c1cccs1)NC1CCCCC1
Found: 9.4

Lookup: Give solubility kinetic for the following compound: CN(C)c1cccc(C(=O)N/C=C/n2cnc3cc(C(F)(F)F)ccc32)c1
Found: 0.4

Lookup: Give solubility kinetic for the following compound: COc1ccc(CN2CCN(C(=O)c3ccc4c(c3)CCC4)CC2)cc1OC
Found: 39.5

Lookup: Give solubility kinetic for the following compound: CN(Cc1ccccc1)C(=O)Nc1ccc(Cl)cc1
Found: 38.5

Lookup: Give solubility kinetic for the following compound: CC(C)Cn1cnc2c1c(=O)[nH]c(=O)n2Cc1ccccc1
Found: 32.7

Lookup: Give solubility kinetic for the following compound: COc1cc2c(cc1OC)/C(=C/C(=O)c1cccc([N+](=O)[O-])c1)NCC2
Found: 0.5

Lookup: Give solubility kinetic for the following compound: Cn1c(O)c(C=Nc2ccccc2)c(=O)n(C)c1=O
Found: 24

Lookup: Give solubility kinetic for the following compound: O=S(=O)(Nc1ccccc1N1CCCCC1)c1cccs1
Found: 1.2

Lookup: Give solubility kinetic for the following compound: O=C(CN1C(=O)C2C3CCC(C3)C2C1=O)OCC(=O)c1ccccc1 (stereo not given)
Found: 48.1
